Molecular target: F508del (Homo sapiens, UniProt P13569, DEL508-508)
Construct: expressed in transfected cells
Sequence (P13569 with tags, fused parts or gaps DEL508-508): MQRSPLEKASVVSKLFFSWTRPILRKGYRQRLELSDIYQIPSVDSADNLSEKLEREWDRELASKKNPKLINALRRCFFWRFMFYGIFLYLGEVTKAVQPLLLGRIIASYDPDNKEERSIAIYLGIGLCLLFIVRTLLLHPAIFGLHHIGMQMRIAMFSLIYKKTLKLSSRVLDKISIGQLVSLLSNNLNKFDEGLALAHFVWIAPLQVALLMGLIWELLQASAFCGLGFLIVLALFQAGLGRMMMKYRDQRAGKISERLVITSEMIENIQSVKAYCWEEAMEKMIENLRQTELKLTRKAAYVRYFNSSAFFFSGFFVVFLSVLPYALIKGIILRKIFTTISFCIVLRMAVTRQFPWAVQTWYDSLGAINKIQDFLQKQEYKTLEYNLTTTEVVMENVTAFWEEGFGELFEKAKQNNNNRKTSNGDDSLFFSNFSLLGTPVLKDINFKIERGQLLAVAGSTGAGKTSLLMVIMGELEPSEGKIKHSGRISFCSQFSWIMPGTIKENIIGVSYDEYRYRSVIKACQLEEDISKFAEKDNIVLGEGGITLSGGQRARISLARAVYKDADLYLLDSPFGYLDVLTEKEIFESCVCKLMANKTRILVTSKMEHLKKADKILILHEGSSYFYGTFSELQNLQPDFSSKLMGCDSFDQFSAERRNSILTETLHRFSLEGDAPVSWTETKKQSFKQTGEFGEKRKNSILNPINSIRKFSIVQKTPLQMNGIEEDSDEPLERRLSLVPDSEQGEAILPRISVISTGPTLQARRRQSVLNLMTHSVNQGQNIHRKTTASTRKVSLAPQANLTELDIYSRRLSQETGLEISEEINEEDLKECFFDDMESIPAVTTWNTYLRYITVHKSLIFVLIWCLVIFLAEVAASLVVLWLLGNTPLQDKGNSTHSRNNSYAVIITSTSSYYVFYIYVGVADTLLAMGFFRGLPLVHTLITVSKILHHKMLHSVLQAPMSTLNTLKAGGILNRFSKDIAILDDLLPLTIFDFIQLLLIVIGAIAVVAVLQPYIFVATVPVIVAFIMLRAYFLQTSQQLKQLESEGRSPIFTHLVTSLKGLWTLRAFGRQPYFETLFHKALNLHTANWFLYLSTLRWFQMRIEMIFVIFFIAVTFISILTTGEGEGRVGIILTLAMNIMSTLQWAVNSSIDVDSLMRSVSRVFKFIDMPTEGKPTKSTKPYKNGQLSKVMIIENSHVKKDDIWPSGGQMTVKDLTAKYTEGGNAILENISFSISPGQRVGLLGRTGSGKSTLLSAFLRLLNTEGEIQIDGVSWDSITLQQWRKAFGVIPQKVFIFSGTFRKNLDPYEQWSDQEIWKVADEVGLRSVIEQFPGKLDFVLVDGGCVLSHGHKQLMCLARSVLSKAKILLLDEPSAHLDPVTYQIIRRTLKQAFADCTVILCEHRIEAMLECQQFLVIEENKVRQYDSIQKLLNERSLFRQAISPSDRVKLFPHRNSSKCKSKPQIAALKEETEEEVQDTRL
Assay: Protocol 2: FRET membrane potential optical assay (VIPR), identification of correction compounds
Assay type: cell-based
Details: Table 3; compounds of Table 1 as modulators of CFTR activity; protocol not stated
Reported Endpoint: EC30

CC(Oc1nc(C(C)(C)C)ccc1C(=O)NS(=O)(=O)c1cccc(N)c1)c1ccccc1 (stereo not shown) :: +++ (“+++” means <3 uM)
Cc1cc(C)c(Cn2cc(C(C)(C)C)cc2C(=O)NS(=O)(=O)c2cccc(N)c2)c(C)c1 :: +++ (“+++” means <3 uM)

---

Biological target: F508del (Homo sapiens, UniProt P13569, DEL508-508)
Construct: expressed in transfected cells
Assay: Protocol 2: FRET membrane potential optical assay (VIPR), identification of correction compounds
Type: cell-based
Conditions: Table 3; compounds of Table 1 as modulators of CFTR activity; protocol not stated
Reported Endpoint: EC30

Cc1cc(C)c(Oc2nc(-c3cc(OCC(C)C)ccc3F)ccc2C(=O)NS(=O)(=O)c2ccc[nH]c2=O)c(C)c1 [Compound 279] :: +++ (“+++” means <3 uM)
Cc1cc(C)c(Cn2c(C(=O)NS(=O)(=O)c3ccccn3)cc3ccccc32)c(C)c1 [Compound 247] :: +++ (“+++” means <3 uM)
Cc1cccc(C)c1Cn1nc(-c2ccc(C(F)(F)F)cc2)cc1C(=O)NS(=O)(=O)c1ccccc1 [Compound 316] :: +++ (“+++” means <3 uM)

---

Target: F508del (Homo sapiens, UniProt P13569, DEL508-508)
Construct: expressed in transfected cells
Assay: Protocol 2: FRET membrane potential optical assay (VIPR), identification of correction compounds
Assay type: cell-based
Conditions: F508del CFTR modulator activity; compounds of Table 1; read-out: EC30
Reported Endpoint: EC30

C[C@@H]1CN(c2nc(-c3ccc(N(C)C)nc3)ccc2C(=O)NS(=O)(=O)c2cccnc2N)C(C)(C)C1 :: 3000 to 10000 nM
CCOc1cccc(Nc2cccc(S(=O)(=O)NC(=O)c3cccnc3N3CC(C)CC3(C)C)n2)c1 (stereo not shown) :: < 3000 nM
CCOCCOc1ccc(C(=O)NS(=O)(=O)c2cccc(N)n2)c(N2C[C@@H](C)CC2(C)C)n1 :: 3000 to 10000 nM

Enquiry: So what does the record say about EC30 for `CCOc1ccc(-c2ccc(C(=O)NS(=O)(=O)c3cccnc3N)c(N3C[C@@H](C)CC3(C)C)n2)cc1F` ?
Return: < 3000 nM

Enquiry: Query: EC30; subject: Cc1cc(OC2CCCC2)cc(-c2cnc(N3CC(C)CC3(C)C)c(C(=O)NS(=O)(=O)c3cccc(N)n3)c2)c1 (stereo not shown)
Return: < 3000 nM

Enquiry: Quick one: EC30 of CC1CN(c2ncc(-c3ccc(C#N)cc3)cc2C(=O)NS(=O)(=O)c2cccc(N)n2)C(C)(C)C1 (stereo not shown) ?
Return: < 3000 nM

Enquiry: Data request, read-out EC30, for `Cc1ccc(F)cc1-c1ccc(C(=O)NS(=O)(=O)c2cccc(N)n2)c(N2C[C@@H](C)CC2(C)C)n1`
Return: < 3000 nM

---

The entries below come with measured EC30 values attached.
Target: F508del (Homo sapiens, UniProt P13569, DEL508-508)
Construct: expressed in transfected cells
Assay: Protocol 2: FRET membrane potential optical assay (VIPR), identification of correction compounds
Format: cell-based
Conditions: F508del CFTR modulator activity; compounds of Table 1; read-out: EC30

The following compounds have reported results that may help.
CC1CN(c2ncccc2C(=O)NS(=O)(=O)c2cccc(NCCC(=O)OC(C)(C)C)n2)C(C)(C)C1 (centres unmarked) [Compound 2495] :: < 3000 nM
COc1cc(-c2ccc(C(=O)NS(=O)(=O)c3cccnc3N)c(N3C[C@@H](C)CC3(C)C)n2)ccc1C [Compound 2379] :: < 3000 nM
CC1CN(c2ncc(-c3ccc(Cl)cc3)cc2C(=O)NS(=O)(=O)c2cccc(N)n2)C(C)(C)C1 (centres unmarked) [Compound 2399] :: < 3000 nM

Enquiry: Can you look up the measured EC30 of C[C@@H]1CN(c2ncccc2C(=O)NS(=O)(=O)N2CC[C@@H](NCc3ccc(F)c(OC(F)(F)F)c3)C2)C(C)(C)C1 [Compound 2680] for me?
Return: 3000 to 10000 nM

Enquiry: What value of EC30 has been reported for the following compound? Cc1ccc(-c2ccc(C(=O)NS(=O)(=O)c3cccnc3N)c(N3C[C@@H](C)CC3(C)C)n2)cn1 [Compound 2363]
Return: 3000 to 10000 nM

Enquiry: Can you share its EC30? I mean this compound: C[C@@H]1CN(c2nc(-n3cc(OCC(C)(C)C)cn3)ccc2C(=O)NS(=O)(=O)c2cccnc2N)C(C)(C)C1 [Compound 2406]
Return: < 3000 nM

Enquiry: Query: EC30; subject: CC1CN(c2ncc(-c3ccc(C4(CO)CC4)cc3)cc2C(=O)NS(=O)(=O)c2cccc(N)n2)C(C)(C)C1 (centres unmarked) [Compound 2112]
Return: 3000 to 10000 nM

Enquiry: Sample COc1cc(Cl)cc(-c2cnc(N3CC(C)CC3(C)C)c(C(=O)NS(=O)(=O)c3cccc(N)n3)c2)c1 (centres unmarked) [Compound 2545] — what was its EC30?
Return: < 3000 nM

Enquiry: Recorded EC30 of C[C@@H]1CN(c2nc(-c3cccc(C(F)(F)F)c3)ccc2C(=O)NS(=O)(=O)c2cccnc2N)C(C)(C)C1 [Compound 2593] , please.
Return: < 3000 nM

Enquiry: May I ask what EC30 has been recorded for CC1CN(c2ncccc2C(=O)NS(=O)(=O)c2cccc(NCCc3cccs3)n2)C(C)(C)C1 (centres unmarked) [Compound 2146] ?
Return: < 3000 nM

Enquiry: Need EC30, item CCCN(CCOC)c1cccc(S(=O)(=O)NC(=O)c2cccnc2N2CC(C)CC2(C)C)n1 (centres unmarked) [Compound 2343]
Return: < 3000 nM

Enquiry: GET /values?readout=EC30&item= C[C@@H]1CN(c2nc(-c3ccc(C(F)(F)F)cc3)ccc2C(=O)NS(=O)(=O)c2cccc(N)n2)C(C)(C)C1 [Compound 2296]
Return: < 3000 nM

Enquiry: Quick one: EC30 of CC1CN(c2ncccc2C(=O)NS(=O)(=O)c2cccc(Oc3cc(Cl)cc(Cl)c3)n2)C(C)(C)C1 (centres unmarked) [Compound 2663] ?
Return: < 3000 nM

Enquiry: Value lookup for EC30; key = CC(C)COc1cc(F)cc(-c2ccc(C(=O)NS(=O)(=O)N3CC(O)CC(F)(F)C3)c(N3C[C@@H](C)CC3(C)C)n2)c1 (some centres unmarked) [Compound 2508]
Return: < 3000 nM

Numbers sourced from patent US10758534B2.
